Each entry below carries its measured Ki, system: Carbonic anhydrase 2 (Homo sapiens, UniProt P00918).

TEST_SMILES	UNITS	Ki
C[C@H](CCC(=O)Nc1ccc(S(N)(=O)=O)cc1Br)[C@H]1CC[C@H]2[C@@H]3[C@H](O)C[C@@H]4C[C@H](O)CC[C@]4(C)[C@H]3CC[C@]12C	nM	34
C[C@H](CCC(=O)Nc1ccc(S(N)(=O)=O)cc1)[C@H]1CC[C@H]2[C@@H]3C(=O)C[C@@H]4CC(=O)CC[C@]4(C)[C@H]3CC(=O)[C@]12C	nM	70
C[C@H](CCC(=O)Nc1ccc(S(N)(=O)=O)cc1Cl)[C@H]1CC[C@H]2[C@@H]3[C@@H](O)C[C@@H]4C[C@H](O)CC[C@]4(C)[C@H]3CC[C@]12C	nM	17
C[C@H](CCC(=O)OCCc1ccc(S(N)(=O)=O)cc1)[C@H]1CC[C@H]2[C@@H]3C(=O)C[C@@H]4CC(=O)CC[C@]4(C)[C@H]3CC(=O)[C@]12C	nM	50
C[C@H](CCC(=O)NCc1ccc(S(N)(=O)=O)cc1)[C@H]1CC[C@H]2[C@@H]3[C@H](O)C[C@@H]4C[C@H](O)CC[C@]4(C)[C@H]3CC[C@]12C	nM	96
